Source: patent US7084127B2

// reported EC50 for each item listed
# Target Desc: human adenosine A2A receptors expressed in CHO cells (Homo sapiens, UniProt P29274)
# Construct: expressed in transfected cells; host or cells: CHO cells
# Sequence (P29274 whole entry): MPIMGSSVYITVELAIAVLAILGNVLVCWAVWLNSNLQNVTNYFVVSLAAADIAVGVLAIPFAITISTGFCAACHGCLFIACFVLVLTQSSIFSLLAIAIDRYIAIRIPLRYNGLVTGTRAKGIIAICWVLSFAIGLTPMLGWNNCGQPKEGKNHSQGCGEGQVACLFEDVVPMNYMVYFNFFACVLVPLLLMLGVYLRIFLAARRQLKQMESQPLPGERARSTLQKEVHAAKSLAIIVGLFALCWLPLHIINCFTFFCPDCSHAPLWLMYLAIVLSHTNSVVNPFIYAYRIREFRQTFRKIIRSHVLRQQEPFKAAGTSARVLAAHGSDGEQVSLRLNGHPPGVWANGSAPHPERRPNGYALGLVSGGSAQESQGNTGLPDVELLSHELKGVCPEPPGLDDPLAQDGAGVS
# Protocol Description: cAMP assay A2A (stimulation of cAMP production)
# Assay type: cell-based
# Assay Setup: cAMP production, human A2A in CHO cells

{"Given Smiles": "Nc1nc(I)nc2c1ncn2[C@@H]1O[C@H](CO)[C@@H](O)[C@H]1O", "Target Desc": "human adenosine A2A receptors expressed in CHO cells (Homo sapiens, UniProt P29274)", "EC50": "5.4 µM"}
{"Given Smiles": "CCCSC[C@H]1O[C@@H](n2cnc3c(N)nc(NN=CCC(C)C)nc32)[C@H](O)[C@@H]1O", "Target Desc": "human adenosine A2A receptors expressed in CHO cells (Homo sapiens, UniProt P29274)", "EC50": "12.9 µM"}
{"Given Smiles": "CCCCC#Cc1nc(N)c2ncn([C@@H]3O[C@H](CSC)[C@@H](O)[C@H]3O)c2n1", "Target Desc": "human adenosine A2A receptors expressed in CHO cells (Homo sapiens, UniProt P29274)", "EC50": "0.7 µM"}
{"Given Smiles": "CC(C)CC=NNc1nc(N)c2ncn([C@@H]3O[C@H](CSC(C)C)[C@@H](O)[C@H]3O)c2n1", "Target Desc": "human adenosine A2A receptors expressed in CHO cells (Homo sapiens, UniProt P29274)", "EC50": "10.4 µM"}
{"Given Smiles": "CSC[C@H]1O[C@@H](n2cnc3c(N)nc(NN=CCC(C)C)nc32)[C@H](O)[C@@H]1O", "Target Desc": "human adenosine A2A receptors expressed in CHO cells (Homo sapiens, UniProt P29274)", "EC50": "5 µM"}
{"Given Smiles": "CCSC[C@H]1O[C@@H](n2cnc3c(N)nc(NN=CCC(C)C)nc32)[C@H](O)[C@@H]1O", "Target Desc": "human adenosine A2A receptors expressed in CHO cells (Homo sapiens, UniProt P29274)", "EC50": "7.5 µM"}
{"Given Smiles": "CC(C)CC=NNc1nc(N)c2ncn([C@@H]3O[C@H](CO)[C@@H](O)[C@H]3O)c2n1", "Target Desc": "human adenosine A2A receptors expressed in CHO cells (Homo sapiens, UniProt P29274)", "EC50": "1.1 µM"}

----------
# Target Desc: UniProtKB P30543

{"Given Smiles": "CC(C)CC=NNc1nc(N)c2ncn([C@@H]3O[C@H](CO)[C@@H](O)[C@H]3O)c2n1", "Target Desc": "UniProtKB P30543", "Ki": "20 nM"}
{"Given Smiles": "CSC[C@H]1O[C@@H](n2cnc3c(N)nc(NN=CCC(C)C)nc32)[C@H](O)[C@@H]1O", "Target Desc": "UniProtKB P30543", "Ki": "220 nM"}
{"Given Smiles": "CCCCC#Cc1nc(N)c2ncn([C@@H]3O[C@H](CSC)[C@@H](O)[C@H]3O)c2n1", "Target Desc": "UniProtKB P30543", "Ki": "60 nM"}
{"Given Smiles": "CCSC[C@H]1O[C@@H](n2cnc3c(N)nc(NN=CCC(C)C)nc32)[C@H](O)[C@@H]1O", "Target Desc": "UniProtKB P30543", "Ki": "500 nM"}
{"Given Smiles": "Nc1nc(Cl)nc2c1ncn2[C@@H]1O[C@H](COC2CC2)[C@@H](O)[C@H]1O", "Target Desc": "UniProtKB P30543", "Ki": "885 nM"}
{"Given Smiles": "CCCSC[C@H]1O[C@@H](n2cnc3c(N)nc(NN=CCC(C)C)nc32)[C@H](O)[C@@H]1O", "Target Desc": "UniProtKB P30543", "Ki": "1500 nM"}
{"Given Smiles": "CCOC[C@H]1O[C@@H](n2cnc3c(NC4CCCC4)nc(Cl)nc32)[C@H](O)[C@@H]1O", "Target Desc": "UniProtKB P30543", "Ki": "1730 nM"}
{"Given Smiles": "COC[C@H]1O[C@@H](n2cnc3c(N)nc(Cl)nc32)[C@H](O)[C@@H]1O", "Target Desc": "UniProtKB P30543", "Ki": "284 nM"}
{"Given Smiles": "CC(C)CC=NNc1nc(N)c2ncn([C@@H]3O[C@H](CSC(C)C)[C@@H](O)[C@H]3O)c2n1", "Target Desc": "UniProtKB P30543", "Ki": "1800 nM"}

----------
% inhib. A1 of forskolin-induced cAMP: recorded values
# Target Desc: human adenosine A1 receptors expressed in CHO cells (Homo sapiens)
# Construct: expressed in transfected cells; host or cells: CHO cells
# Protocol Description: cAMP assay A1 (inhibition of forskolin-induced cAMP production)
# Format: cell-based
# Assay Setup: compared to reference full agonist CPA (10 μM) in A1 CHO cells; tested at ±100 × Ki; ±SEM, n = 3; forskolin 10 μM

{"Compound": "COC[C@H]1O[C@@H](n2cnc3c(N)ncnc32)[C@H](O)[C@@H]1O [Compound 66, 5′-O-methyladenosine]", "% inhib. A1 of forskolin-induced cAMP": "75 ± 3%"}
{"Compound": "Nc1nc(Cl)nc2c1ncn2[C@@H]1O[C@H](COC2CC2)[C@@H](O)[C@H]1O [Compound 81, 2-Chloro-5′-O-cyclopropyladenosine]", "% inhib. A1 of forskolin-induced cAMP": "49 ± 9%"}
{"Compound": "COC[C@H]1O[C@@H](n2cnc3c(NC4CCCC4)nc(Cl)nc32)[C@H](O)[C@@H]1O [Compound 70]", "% inhib. A1 of forskolin-induced cAMP": "73 ± 4%"}
{"Compound": "CCOC[C@H]1O[C@@H](n2cnc3c(NC4CCCC4)nc(Cl)nc32)[C@H](O)[C@@H]1O [Compound 76]", "% inhib. A1 of forskolin-induced cAMP": "62 ± 6%"}

----------
# Target Desc: A2A receptor in rat striatum (Rattus norvegicus)
# Construct: the A2A receptor in rat striatum; from tissue; host or cells: rat striatum
# Sequence (P30543 whole entry): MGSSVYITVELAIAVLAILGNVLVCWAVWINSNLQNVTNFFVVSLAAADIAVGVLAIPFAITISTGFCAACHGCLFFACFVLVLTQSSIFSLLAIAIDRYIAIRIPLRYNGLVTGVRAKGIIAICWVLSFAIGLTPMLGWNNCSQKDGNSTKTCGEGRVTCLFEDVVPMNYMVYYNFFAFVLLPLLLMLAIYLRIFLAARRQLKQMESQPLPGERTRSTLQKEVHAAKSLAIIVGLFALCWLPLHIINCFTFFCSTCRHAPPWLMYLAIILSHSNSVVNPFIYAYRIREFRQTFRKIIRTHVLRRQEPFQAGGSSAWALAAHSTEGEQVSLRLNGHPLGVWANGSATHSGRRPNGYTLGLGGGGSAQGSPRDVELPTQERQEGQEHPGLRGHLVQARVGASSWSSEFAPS
# Protocol Description: Radioligand binding, displacement of [3H]ZM241385 from rat striatal membranes;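 also: displacement assays run in the absence of GTP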
# Assay Setup: [3H]ZM241385, rat striatal membranes, ligand 10^−5 M
This section presents compounds with their documented % displacement at 10^−5 M A2A values.
Property Measured: % displacement at 10^−5 M A2A (%)

{"Compound": "O[C@@H]1[C@H](O)[C@@H](COC2CC2)O[C@H]1n1cnc2c(NCc3cccc(I)c3)nc(Cl)nc21 [Compound 83]", "Target Desc": "A2A receptor in rat striatum (Rattus norvegicus)", "Recorded Number": 38.7}
{"Compound": "CNC(=O)[C@H]1O[C@@H](n2cnc3c(NCc4cccc(I)c4)nc(Cl)nc32)[C@H](O)[C@@H]1O [Cl-IB-MECA, reference compound]", "Target Desc": "A2A receptor in rat striatum (Rattus norvegicus)", "Recorded Number": 23.5}
{"Compound": "OC[C@H]1O[C@@H](n2cnc3c(NC4CCCC4)nc(Cl)nc32)[C@H](O)[C@@H]1O [2-Cl-CPA, reference compound]", "Target Desc": "A2A receptor in rat striatum (Rattus norvegicus)", "Recorded Number": 53.1}
{"Compound": "CCOC[C@H]1O[C@@H](n2cnc3c(NCc4cccc(I)c4)ncnc32)[C@H](O)[C@@H]1O [Compound 74, N^6-(3-Iodobenzyl)-5′-O-Ethyladenosine]", "Target Desc": "A2A receptor in rat striatum (Rattus norvegicus)", "Recorded Number": 40.4}
{"Compound": "O[C@@H]1[C@H](O)[C@@H](COC2CC2)O[C@H]1n1cnc2c(NC3CCCC3)ncnc21 [Compound 79]", "Target Desc": "A2A receptor in rat striatum (Rattus norvegicus)", "Recorded Number": 24.3}
{"Compound": "O[C@@H]1[C@H](O)[C@@H](COC2CC2)O[C@H]1n1cnc2c(NCc3cccc(I)c3)ncnc21 [Compound 80]", "Target Desc": "A2A receptor in rat striatum (Rattus norvegicus)", "Recorded Number": 43.7}
{"Compound": "O[C@@H]1[C@H](O)[C@@H](COC2CC2)O[C@H]1n1cnc2c(NC3CCCC3)nc(Cl)nc21 [Compound 82]", "Target Desc": "A2A receptor in rat striatum (Rattus norvegicus)", "Recorded Number": 34.6}
{"Compound": "CCOC[C@H]1O[C@@H](n2cnc3c(NC4CCCC4)ncnc32)[C@H](O)[C@@H]1O [Compound 73, N^6-cyclopentyl-5′-O-ethyladenosine]", "Target Desc": "A2A receptor in rat striatum (Rattus norvegicus)", "Recorded Number": 33.9}

----------
Reported % inhib. A1 of forskolin-induced cAMP values for the following compounds.
# Target Desc: human adenosine A1 receptors expressed in CHO cells (Homo sapiens, UniProt P30542)
# Construct: expressed in transfected cells; host or cells: CHO cells
# Sequence (P30542 whole entry): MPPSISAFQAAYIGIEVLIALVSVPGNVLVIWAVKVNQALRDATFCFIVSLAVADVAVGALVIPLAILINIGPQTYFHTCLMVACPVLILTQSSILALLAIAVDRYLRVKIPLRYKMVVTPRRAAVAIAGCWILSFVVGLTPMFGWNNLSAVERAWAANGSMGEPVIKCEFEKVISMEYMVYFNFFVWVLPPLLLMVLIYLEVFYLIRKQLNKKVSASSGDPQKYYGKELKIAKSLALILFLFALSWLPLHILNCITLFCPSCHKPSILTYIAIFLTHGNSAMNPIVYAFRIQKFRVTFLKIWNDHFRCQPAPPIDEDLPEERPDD
# Protocol Description: cAMP assay A1 (inhibition of forskolin-induced cAMP production)
# Assay type: cell-based
# Assay Setup: compared to reference full agonist CPA (10 μM) in A1 CHO cells; tested at ±100 × Ki; ±SEM, n = 3; forskolin 10 μM

{"Compound": "CCOC[C@H]1O[C@@H](n2cnc3c(N)nc(Cl)nc32)[C@H](O)[C@@H]1O [Compound 75, 2-Chloro-5′-O-ethyladenosine]", "Unit Annotation": "%", "% inhib. A1 of forskolin-induced cAMP": 67}
{"Compound": "COC[C@H]1O[C@@H](n2cnc3c(NCc4cccc(I)c4)ncnc32)[C@H](O)[C@@H]1O [Compound 68, N^6-(3-iodobenzyl)-5′-O-methyladenosine]", "Unit Annotation": "%", "% inhib. A1 of forskolin-induced cAMP": 53}
{"Compound": "COC[C@H]1O[C@@H](n2cnc3c(N)nc(Cl)nc32)[C@H](O)[C@@H]1O [Compound 69, 2-Chloro-5′-O-methyladenosine]", "Unit Annotation": "%", "% inhib. A1 of forskolin-induced cAMP": 78}
{"Compound": "CCOC[C@H]1O[C@@H](n2cnc3c(NCc4cccc(I)c4)ncnc32)[C@H](O)[C@@H]1O [Compound 74, N^6-(3-Iodobenzyl)-5′-O-Ethyladenosine]", "Unit Annotation": "%", "% inhib. A1 of forskolin-induced cAMP": 6}
{"Compound": "COC[C@H]1O[C@@H](n2cnc3c(NC4CCCC4)ncnc32)[C@H](O)[C@@H]1O [Compound 67, N^6-cyclopentyl-5′-O-methyladenosine]", "Unit Annotation": "%", "% inhib. A1 of forskolin-induced cAMP": 74}
{"Compound": "O[C@@H]1[C@H](O)[C@@H](COC2CC2)O[C@H]1n1cnc2c(NCc3cccc(I)c3)nc(Cl)nc21 [Compound 83]", "Unit Annotation": "%", "% inhib. A1 of forskolin-induced cAMP": "−118"}
